melting point overview

A selection of reference data follows.
{"compound": "O=S(=O)(CC(F)(F)F)Nc1cccc2c1CCCC2c1c[nH]cn1 (single isomer, unassigned; (+))", "melting point": "> 260 °C"}
{"compound": "CCS(=O)(=O)Nc1cc(Cc2c[nH]cn2)ccc1Cl", "melting point": "159 to 160 °C"}

Attention now shifts to the item below.
melting point measured on COc1ccc2c(c1NS(C)(=O)=O)CCCC2c1c[nH]cn1.Cl (stereo not drawn) = 209 to 211 °C

###

- Tested on: anesthetized dogs
- assay_info: Mean arterial pressure (MAP) in anesthetized dogs
- Format: in vivo, dog
- measurement_context: iv dose causing a maximum increase in MAP of 20 mm Hg, anesthetized female Beagle dogs
Mean MAP ED20 overview
Provide only the numeric value, understood in nmol/kg.

Log: anesthetized dogs, molecule CCS(=O)(=O)Nc1cccc2c1CCC2c1c[nH]cn1.O=C(O)/C=C\C(=O)O (centres unmarked) , Mean MAP ED20 = 5.6

Log: anesthetized dogs, molecule O=C(Nc1cccc2c1CCCC2c1c[nH]cn1)N1CCOCC1 (centres unmarked) , Mean MAP ED20 = 645

Log: anesthetized dogs, molecule O=C(Nc1cccc2c1CCCC2c1c[nH]cn1)C(F)(F)F.O=C(O)/C=C\C(=O)O (centres unmarked) , Mean MAP ED20 = 216

Log: anesthetized dogs, molecule CC(=O)Nc1cccc2c1CCCC2c1c[nH]cn1.O=C(O)/C=C\C(=O)O (centres unmarked) , Mean MAP ED20 = 220

Log: anesthetized dogs, molecule CCS(=O)(=O)Nc1cc(F)cc2c1OCCC2c1c[nH]cn1.O=C(O)/C=C\C(=O)O (centres unmarked) , Mean MAP ED20 = 125.78

Log: anesthetized dogs, molecule CS(=O)(=O)Nc1ccc(F)c2c1CCCC2c1c[nH]cn1.O=C(O)/C=C\C(=O)O (centres unmarked) , Mean MAP ED20 = 588
